// provenance: patent US10287267B2

test system: Tau phosphorylation at Ser396 (pSer396); assay: Tau phosphorylation assay (pSer396 ELISA / western blot) in SH-SY5Y cells; type: cell-based, human; conditions: Homo sapiens; SH-SY5Y cells, overnight (16-18 h) exposure; read-out: pSer396 Tau EC50;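 further: EC50 for reduction of Tau pSer396 in lysed cells, measured by colorimetric ELISA or chemiluminescent western blot, both using the same pSer396 antibody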
outcomeMeasure: EC50 (nM)

> print(dat)
                                  cpdsmiles  unitsofmeasure  experimentalresult
1  CN1CCN(C(=O)Nc2cc3cc(-c4cnn(C)c4)ccc3cn2)CC1              nM                8780
2  CC1CCN(CC(=O)Nc2cc3cc(-c4cnn(C)c4CN4CCCCC4)ccc3cn2)CC1              nM                 350
3  CN1CCC[C@@H]1C(=O)Nc1cc2cc(-c3cnn(C)c3)ccc2cn1              nM                 406
4  CN1CCN(C(=O)[C@H]2CC[C@H](C(=O)Nc3cc4cc(-c5cnn(C)c5)ccc4cn3)CC2)CC1              nM                 869

----------
target: recombinant DYRK1A kinase (Homo sapiens (Human)); test: DYRK1A kinase assay (Ser/Thr 18 peptide Z-lyte FRET); conditions: 30 μM ATP, 1 h room temperature;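 further: Read-out is the coumarin to fluorescein emission ratio, referenced to unphosphorylated (0%) and phosphorylated (100%) Ser/Thr 18 peptide controls, values from dose-response curves by non-linear regression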
outcomeMeasure: log10(EC50) (log10 of the value in nM)

> print(dat)
                                   cpdsmiles  experimentalresult
 1  CC(C)CN1CCC(C(=O)Nc2cc3cc(-c4cnn(C)c4)cc(F)c3cn2)CC1                1.05
 2  CN1CCC(N(C)C(=O)Nc2cc3cc(-c4cnn(C)c4)ccc3cn2)CC1                1.01
 3  CN(C)[C@H]1CC[C@H](C(=O)Nc2cc3cc(-c4cncs4)ccc3cn2)CC1               -0.05
 4  [2H]C([2H])([2H])n1cc(-c2ccc3cnc(NC(=O)CN4CCN(C)CC4)cc3c2)cn1                0.97
 5  CCN(CC)CC(=O)Nc1cc2cc(-c3cnn(C)c3CN3CCCCC3)ccc2cn1                1.00
 6  CC1CCN(CC(=O)Nc2cc3cc(-c4cnn(C)c4)ccc3cn2)CC1                0.70
 7  COC(=O)CN1CCC(C(=O)Nc2cc3cc(-c4cnn(C)c4)ccc3cn2)CC1                0.20
 8  [2H]C([2H])([2H])n1cc(-c2ccc3cnc(NC(=O)[C@H](C)N4CCCC4)cc3c2)cn1                1.53
 9  Cn1cc(-c2ccc3cnc(NC(=O)CN4CCN(CCF)CC4)cc3c2)cn1                0.64
10  Cn1cc(-c2ccc3cnc(NC(=O)C4CCN(Cc5cnccn5)CC4)cc3c2)cn1                0.30
11  Cn1cc(-c2ccc3cnc(NC(=O)CCN4CCOCC4)cc3c2)cn1                0.28
12  CN1CCC(N2CCC(C(=O)Nc3cc4cc(-c5cnn(C)c5)ccc4cn3)CC2)CC1                0.26
13  O=C(Nc1cc2cc(-c3cncs3)ccc2cn1)[C@H]1CC[C@H](CN2CC(F)C2)CC1                0.00
14  Cc1nnc(-c2ccc3cnc(NC(=O)[C@H]4CC[C@H](CO)CC4)cc3c2)s1                0.15
15  O=C(Nc1cc2cc(-c3cnco3)ccc2cn1)[C@@H]1CCCNC1                1.08
16  Cn1cc(-c2ccc3cnc(NC(=O)CN4C5CCC4CC5)cc3c2)nn1                1.02
17  O=C(CN1CCCC1)Nc1cc2cc(-c3cnn(C4CC4)c3)ccc2cn1                1.81
